System: mu opiate receptor (MOR)
Assay: MOR agonist activity using [35S]GTPγS binding assay in striatal membranes
Assay type: biochemical
Settings: Series C-2; 1 μM compound + β-FNA, relative to DAMGO + BFNA
Quick reference for % DAMGO + BFNA among some compounds
Write the number in % without appending the unit.

Here's what some known entries look like.
COc1ccc(S(=O)(=O)N2CCOC23CCN(C)CC3)cc1 [Compound C0088M] | 513.3
O=C1CN(Cc2ccccc2)C2(CCNCC2)N1 [Compound C0115M] | 249.3
CS(=O)(=O)c1ccc(S(=O)(=O)N2CCOC23CCN(CC2CC2)CC3)cc1 [Compound C0126M] | 228.4

In: State the recorded % DAMGO + BFNA for this entry: CCN1CCC2(CC1)OCCN2S(=O)(=O)c1ccc(OC)cc1 [Compound C0089M]
Out: 237.4

In: State the recorded % DAMGO + BFNA for this entry: O=S(=O)(c1ccccc1Oc1ccccc1)N1CCC2(CC1)NCCO2 [Compound C0149M-2]
Out: 102.3

In: State the recorded % DAMGO + BFNA for this entry: COc1ccc(S(=O)(=O)N2CCOC23CCN(CC2CC2)CC3)cc1 [Compound C0090M]
Out: 118.8

In: State the recorded % DAMGO + BFNA for this entry: Cc1ccc(S(=O)(=O)N2CCOC23CCN(CC2CC2)CC3)cc1 [Compound C0134M]
Out: 98.1

In: State the recorded % DAMGO + BFNA for this entry: CC(=O)c1ccc(S(=O)(=O)N2CC(CN(C)C)OC23CCN(CC2CC2)CC3)cc1 (stereo not shown) [Compound C0128M]
Out: 131.8

In: State the recorded % DAMGO + BFNA for this entry: CS(=O)(=O)c1ccc(S(=O)(=O)N2CCOC23CCNCC3)cc1 [Compound C0116M]
Out: 313.4

In: State the recorded % DAMGO + BFNA for this entry: CC(=O)c1ccc(S(=O)(=O)N2CC(=O)NC23CCNCC3)cc1 [Compound C0086M]
Out: 692.3

In: State the recorded % DAMGO + BFNA for this entry: C=CCN1CCC2(CC1)OCCN2S(=O)(=O)c1ccc(OC)cc1 [Compound C0091M]
Out: 367.3

In: State the recorded % DAMGO + BFNA for this entry: O=S(=O)(c1cccc2cccnc12)N1CCC2(CC1)OCCN2S(=O)(=O)c1cccc2cccnc12 [Compound C0143M]
Out: 94.7

In: State the recorded % DAMGO + BFNA for this entry: O=[N+]([O-])c1ccc(S(=O)(=O)N2CCC3(CC2)NCCCO3)cc1
Out: 634.3

In: State the recorded % DAMGO + BFNA for this entry: CC(=O)N1CCSC12CCN(S(=O)(=O)c1ccc([N+](=O)[O-])cc1)CC2
Out: 134.1

In: State the recorded % DAMGO + BFNA for this entry: O=C1CN(C2CCc3ccccc3C2)C2(CCN(S(=O)(=O)c3ccccc3)CC2)N1 (stereo not shown) [C0136M(P5)]
Out: 153.6

In: State the recorded % DAMGO + BFNA for this entry: CN1CCC2(CC1)OCCN2S(=O)(=O)c1ccc(S(C)(=O)=O)cc1 [Compound C0106M]
Out: 246.7

###

Biological target: UniProt:P21333
Assay: FITC-NLX-based FLNA screening assay (inhibition of FITC-naloxone binding to Bn-VAKGL on streptavidin plates)
Conditions: FLNA-binding compound 1 μM; 10 nM FITC-NLX
The label depends only on Percent Binding Inhibition: y if it is at least 50%, n if it is smaller.

Look over these answered cases.
CC1CCC(C(C)C)C(OCC(O)CN2CC(C)OC(C)C2)C1 (stereo not drawn) [Compound A3333] | y
COc1ccc(OCC(O)CN2CCc3ccccc32)cc1 (stereo not drawn) [Compound A0069] | n
CC1CCC(C(C)C)C(OCC(O)CN2CCOc3ccccc32)C1 (stereo not drawn) [Compound A0066] | y
COc1ccc(OCC(O)CN2CCCc3ccccc32)cc1 (stereo not drawn) [Compound A0067] | n

Lab note: next molecule to report on.
In: Does the molecule COc1ccc(OCC(O)CN2CCc3cc4c(c(OC)c3C2)OCO4)cc1 (stereo not drawn) [Compound A0070] have recorded Percent Binding Inhibition that is 50% or more?
Out: n
